Target: hNav1.7 (Homo sapiens (Human), UniProt Q15858)
Sequence (Q15858 other isoform, or with tags, fused parts or gaps): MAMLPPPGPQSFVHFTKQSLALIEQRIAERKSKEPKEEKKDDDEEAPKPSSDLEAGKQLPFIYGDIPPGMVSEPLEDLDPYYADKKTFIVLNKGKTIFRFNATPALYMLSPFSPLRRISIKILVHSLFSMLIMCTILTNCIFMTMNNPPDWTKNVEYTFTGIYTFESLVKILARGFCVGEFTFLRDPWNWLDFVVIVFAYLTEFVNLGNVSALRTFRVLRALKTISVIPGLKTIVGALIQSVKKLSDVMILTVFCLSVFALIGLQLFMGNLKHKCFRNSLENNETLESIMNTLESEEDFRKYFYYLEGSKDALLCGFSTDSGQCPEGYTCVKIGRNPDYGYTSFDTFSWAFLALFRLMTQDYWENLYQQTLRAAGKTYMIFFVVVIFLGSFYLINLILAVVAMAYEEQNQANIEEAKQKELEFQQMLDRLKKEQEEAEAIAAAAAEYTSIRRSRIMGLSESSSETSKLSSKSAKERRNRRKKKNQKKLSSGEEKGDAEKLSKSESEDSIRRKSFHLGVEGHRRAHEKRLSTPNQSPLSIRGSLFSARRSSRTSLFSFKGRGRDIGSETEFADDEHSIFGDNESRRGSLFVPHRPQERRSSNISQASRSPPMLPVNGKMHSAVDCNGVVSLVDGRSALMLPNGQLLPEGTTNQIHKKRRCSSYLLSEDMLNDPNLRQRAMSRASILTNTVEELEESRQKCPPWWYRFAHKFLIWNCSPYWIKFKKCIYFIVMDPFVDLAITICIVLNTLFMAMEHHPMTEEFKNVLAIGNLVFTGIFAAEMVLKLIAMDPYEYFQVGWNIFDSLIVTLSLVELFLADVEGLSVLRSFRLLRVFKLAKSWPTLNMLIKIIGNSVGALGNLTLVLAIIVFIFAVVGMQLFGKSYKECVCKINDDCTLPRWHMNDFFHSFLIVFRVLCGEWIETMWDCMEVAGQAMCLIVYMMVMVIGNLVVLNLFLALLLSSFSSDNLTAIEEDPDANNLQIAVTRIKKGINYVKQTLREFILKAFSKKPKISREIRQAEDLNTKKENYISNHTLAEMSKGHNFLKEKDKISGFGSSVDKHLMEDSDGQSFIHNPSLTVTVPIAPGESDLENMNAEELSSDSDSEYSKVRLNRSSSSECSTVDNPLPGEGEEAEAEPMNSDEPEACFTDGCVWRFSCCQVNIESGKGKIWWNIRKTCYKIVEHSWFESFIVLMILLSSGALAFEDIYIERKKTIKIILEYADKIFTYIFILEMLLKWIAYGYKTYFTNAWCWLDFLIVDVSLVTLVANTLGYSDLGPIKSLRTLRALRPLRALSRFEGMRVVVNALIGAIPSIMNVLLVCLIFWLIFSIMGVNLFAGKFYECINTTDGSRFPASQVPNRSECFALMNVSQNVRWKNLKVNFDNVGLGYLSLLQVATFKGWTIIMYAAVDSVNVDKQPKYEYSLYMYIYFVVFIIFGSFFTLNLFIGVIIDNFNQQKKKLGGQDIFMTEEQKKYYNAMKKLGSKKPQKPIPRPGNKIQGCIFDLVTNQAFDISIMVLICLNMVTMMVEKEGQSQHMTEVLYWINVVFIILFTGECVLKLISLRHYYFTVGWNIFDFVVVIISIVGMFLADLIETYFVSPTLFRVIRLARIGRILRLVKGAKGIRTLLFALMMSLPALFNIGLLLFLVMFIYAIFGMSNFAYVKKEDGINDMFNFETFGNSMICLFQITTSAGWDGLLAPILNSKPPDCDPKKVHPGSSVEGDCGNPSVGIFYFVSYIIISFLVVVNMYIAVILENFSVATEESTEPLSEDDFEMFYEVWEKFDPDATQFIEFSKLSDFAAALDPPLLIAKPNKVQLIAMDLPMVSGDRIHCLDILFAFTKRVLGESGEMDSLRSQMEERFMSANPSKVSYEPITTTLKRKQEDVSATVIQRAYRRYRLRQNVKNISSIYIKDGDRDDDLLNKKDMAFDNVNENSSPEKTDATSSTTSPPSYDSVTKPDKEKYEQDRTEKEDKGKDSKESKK
Sequence (Q07699 19-218 partner): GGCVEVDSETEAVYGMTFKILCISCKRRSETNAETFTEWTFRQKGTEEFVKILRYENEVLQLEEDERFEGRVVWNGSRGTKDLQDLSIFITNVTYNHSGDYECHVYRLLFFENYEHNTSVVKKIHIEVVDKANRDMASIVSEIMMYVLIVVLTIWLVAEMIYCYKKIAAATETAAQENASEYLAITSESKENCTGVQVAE
Assay: Tritiated sulfonamide competitive binding to membranes from cells expressing hNav1.7 and the β1 subunit
pIC50: −log10 of the molar value. Where a name gives a salt, the structure may show the parent alone.
So basically: pIC50 at 8 or higher? That is yes. Lower than 8? That is no.

input: Determine whether measured pIC50 meets or exceeds 8 for O=C(NS(=O)(=O)N1CCC1)c1cc(C2CC2)c(O[C@@H]2CCCN(Cc3ccc(F)cc3)C2)cc1F
output: no

input: Continue with CC1(C)CN(Cc2cc(F)c(C(=O)NS(C)(=O)=O)cc2C2CC2)CCC1Oc1cc(C(F)(F)F)c(Cl)cn1 (stereo not shown) [Example 561, trifluoroacetic acid salt]
output: yes

input: Continue with O=C(NS(=O)(=O)C1CC1)c1cc(C2CC2)c(O[C@@H]2CCCN(Cc3cccc(Cl)c3)C2)cc1F
output: yes

input: Continue with O=C(NS(=O)(=O)C1CC1)c1cc(C2CC2)c(CN2CC(Oc3cc(Cl)cc(Cl)c3)C2)cc1F [Example 545, trifluoroacetic acid salt]
output: yes

###

Target: hNav1.7 (Homo sapiens (Human), UniProt Q15858)
Test: Tritiated sulfonamide competitive binding to membranes from cells expressing hNav1.7 and the β1 subunit
Conditions: read-out: Ligand Binding Assay; 100 pM [3H]compound, membranes with hNav1.7 and β1 subunit, 18 h, room temperature
Where a name gives a salt, the structure may show the parent alone.
Listing of recorded IC50 by entry.
// units = µM; emit number, no label

Please review the entries below; each comes with its answer.
>  <molecule>
CCS(=O)(=O)NC(=O)c1cc(C2CC2)c(OCC2CCN([C@@H](C)c3ccc(Cl)cc3Cl)CC2)cc1F

>  <IC50 / µM>
0.0033

$$$$
>  <molecule>
COCCS(=O)(=O)NC(=O)c1cc(C2CC2)c(OCC2CN(C(c3ccccc3)c3ccccc3)C2)cc1F

>  <IC50 / µM>
0.057

$$$$
>  <molecule>
CS(=O)(=O)NC(=O)c1cc(C2CC2)c(OCC2CCN(Cc3ccccc3C#N)CC2)cc1F

>  <IC50 / µM>
0.0737

$$$$
>  <molecule>
CS(=O)(=O)NC(=O)c1cc(C2CC2)c(OCC2CCN(Cc3ccc(Br)cc3F)CC2)cc1F

>  <IC50 / µM>
0.011

$$$$
>  <molecule>
O=C(NS(=O)(=O)N1CCC1)c1cc(C2CC2)c(CN2CCC(OCc3ccc(F)cc3Cl)CC2)cc1F [Example 479, trifluoroacetic acid salt]

>  <IC50 / µM>
0.0553

$$$$
>  <molecule>
CC1(COc2cc(F)c(C(=O)NS(C)(=O)=O)cc2C2CC2)CN(Cc2cc(C(F)(F)F)cc(Cl)c2F)C1

>  <IC50 / µM>
0.0099

$$$$
>  <molecule>
CC1(COc2cc(F)c(C(=O)NS(C)(=O)=O)cc2C2CC2)CCN(c2cc(C(F)(F)F)c(Cl)cn2)CC1

>  <IC50 / µM>
0.0021

$$$$
>  <molecule>
O=C(NS(=O)(=O)C1CC1)c1cc(C2CC2)c(CN2CCC[C@@H](Oc3cc(Cl)cc(Cl)c3)C2)cc1F

>  <IC50 / µM>
0.0233

$$$$

Next, consider the following molecule.
input: // lookup IC50 for C[C@@H](c1cc(F)cc(Cl)c1)N1CCC(COc2cc(F)c(C(=O)NS(C)(=O)=O)cc2C2CC2)CC1 (single isomer, unassigned)
output: 0.0059

###

Listing of recorded pIC50 by entry.
Target: hNav1.7 (Homo sapiens (Human), UniProt Q15858)
Experiment: Tritiated sulfonamide competitive binding to membranes from cells expressing hNav1.7 and the β1 subunit
Settings: read-out: Ligand Binding Assay; 100 pM [3H]compound, membranes with hNav1.7 and β1 subunit, 18 h, room temperature
Where a name gives a salt, the structure may show the parent alone.
In simple prose, pIC50 is minus the logarithm base ten of a concentration in moles per litre.

>  <compound>
Cc1cc(C(=O)NS(=O)(=O)C2CC2)c(F)cc1OCC1CCN([C@@H](C)c2cc(Cl)cc(Cl)c2)CC1 [Example 359, trifluoroacetic acid salt]

>  <observed.measurement>
7.94

$$$$

input: // lookup pIC50 for C[C@@H](c1cc(Cl)cc(Cl)c1)N1CCC(C#N)(COc2cc(F)c(C(=O)NS(C)(=O)=O)cc2C2CC2)CC1
output: 6.59

input: Continue with O=C(NS(=O)(=O)C1CC1)c1cc(C2CC2)c(OC[C@H]2CCCN(Cc3ccc(F)cc3Cl)C2)cc1F [Example 340, trifluoroacetic acid salt]
output: 8.33

input: Continue with C[C@H](c1cc(Cl)cc(C(F)(F)F)c1)N1CCC(C)(COc2cc(F)c(C(=O)NS(C)(=O)=O)cc2C2CC2)CC1 (single isomer, unassigned)
output: 8.48

input: Continue with CS(=O)(=O)NC(=O)c1cc(C2CC2)c(CN2CCC(Oc3ccc(C(F)(F)F)cn3)CC2)cc1F [Example 476, trifluoroacetic acid salt]
output: 7.43

input: Continue with CC1(COc2cc(F)c(C(=O)NS(=O)(=O)C3CC3)cc2C2CC2)CN(c2cc(Cl)c(C(F)(F)F)cn2)C1 [Example 486, trifluoroacetic acid salt]
output: 8.25

###

Listing of recorded pIC50 by entry.
Biological target: hNav1.7 (Homo sapiens (Human), UniProt Q15858)
Assay: Tritiated sulfonamide competitive binding to membranes from cells expressing hNav1.7 and the β1 subunit
Details: read-out: Ligand Binding Assay; 100 pM [3H]compound, membranes with hNav1.7 and β1 subunit, 18 h, room temperature; trifluoroacetic acid salt
Counter-ions that a name gives are not always drawn.
In simple prose, pIC50 is minus the logarithm base ten of a concentration in moles per litre.

input: Entry CS(=O)(=O)NC(=O)c1cc(C2CC2)c(CN2[C@@H]3CC[C@H]2C[C@@H](Oc2ncc(C(F)(F)F)cc2Cl)C3)cc1F [Example 552, trifluoroacetic acid salt] , system hNav1.7 (Homo sapiens (Human), UniProt Q15858): what pIC50 was measured?
output: 8.15

input: Continue with O=C(NS(=O)(=O)C1CC1)c1cc(C2CC2)c(CN2CCC(Oc3ccc(F)cc3Cl)CC2)cc1F [Example 506, trifluoroacetic acid salt]
output: 7.84

input: Continue with O=C(NS(=O)(=O)C1CC1)c1cc(C2CC2)c(CN2CCC(Oc3ccc(F)cc3Cl)CC2)cc1F [Example 507, trifluoroacetic acid salt]
output: 7.09

input: Continue with CS(=O)(=O)NC(=O)c1cc(C2CC2)c(CN2[C@@H]3CC[C@H]2C[C@@H](Oc2ncc(C(F)(F)F)cc2Cl)C3)cc1F [Example 553, trifluoroacetic acid salt]
output: 8.21

###

Target: hNav1.7 (Homo sapiens (Human))
Experiment: Tritiated sulfonamide competitive binding to membranes from cells expressing hNav1.7 and the β1 subunit
Counter-ions that a name gives are not always drawn.
recorded.endpoint: IC50 (nM)
// units = nM; emit number, no label

Please review the entries below; each comes with its answer.
>  <compound>
O=C(NS(=O)(=O)N1CCC1)c1cc(C2CC2)c(O[C@@H]2CCCN(Cc3ccc(Cl)cc3Cl)C2)cc1F

>  <IC50 [nM]>
2.7

$$$$
>  <compound>
Cc1ccc(CN2CCC[C@@H](Oc3cc(F)c(C(=O)NS(=O)(=O)C4CC4)cc3C3CC3)C2)cc1

>  <IC50 [nM]>
5.4

$$$$
>  <compound>
O=C(NS(=O)(=O)C1CC1)c1cc(C2CC2)c(O[C@@H]2CCCN(Cc3ccc(F)cc3Cl)C2)cc1F

>  <IC50 [nM]>
3.5

$$$$
>  <compound>
CS(=O)(=O)NC(=O)c1cc(C2CC2)c(CN2CCC(Oc3ccc(Cl)c(Cl)c3)CC2)cc1F [Example 509, trifluoroacetic acid salt]

>  <IC50 [nM]>
13.1

$$$$

input: // lookup IC50 for O=C(NS(=O)(=O)C1CC1)c1cc(C2CC2)c(CN2CCC(CF)(c3ccc(F)cc3)CC2)cc1F [Example 514, trifluoroacetic acid salt]
output: 24.4

###

Listing of recorded IC50 by entry.
Biological target: hNav1.7 (Homo sapiens (Human), UniProt Q15858)
Experiment: Tritiated sulfonamide competitive binding to membranes from cells expressing hNav1.7 and the β1 subunit;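 note: Filter-bound radioactivity counted by liquid scintillation, nonspecific binding defined with excess unlabelled ligand, IC50 fitted to percent inhibition of specific binding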
Conditions: read-out: Ligand Binding Assay; 100 pM [3H]compound, membranes with hNav1.7 and β1 subunit, 18 h, room temperature
Structures can show the parent of a compound that is named as a salt.
// units = µM; emit number, no label

>  <molecule>
O=C(NS(=O)(=O)C1CC1)c1cc(C2CC2)c(CN2CCC[C@H](Oc3cc(Cl)cc(Cl)c3)C2)cc1F [Example 53]

>  <target>
hNav1.7 (Homo sapiens (Human), UniProt Q15858)

>  <IC50 (µM)>
0.008

$$$$
>  <molecule>
CS(=O)(=O)NC(=O)c1cc(C2CC2)c(OC[C@H]2CCCN(Cc3ccc(F)cc3Cl)C2)cc1F [Example 335]

>  <target>
hNav1.7 (Homo sapiens (Human), UniProt Q15858)

>  <IC50 (µM)>
0.0143

$$$$
>  <molecule>
O=C(NS(=O)(=O)C1CC1)c1cc(C2CC2)c(OCC2CCN(S(=O)(=O)c3cc(Cl)c(Br)cc3F)CC2)cc1F [Example 367]

>  <target>
hNav1.7 (Homo sapiens (Human), UniProt Q15858)

>  <IC50 (µM)>
0.0083

$$$$
>  <molecule>
CC(C)(C)OC(=O)N1CC(COc2cc(F)c(C(=O)NS(C)(=O)=O)cc2C2CC2)C1 [Example 72]

>  <target>
hNav1.7 (Homo sapiens (Human), UniProt Q15858)

>  <IC50 (µM)>
0.75

$$$$
>  <molecule>
CS(=O)(=O)NC(=O)c1cc(C2CC2)c(OCC2CN([C@H](c3ccccc3)c3cccc(C#N)c3)C2)cc1F [Example 109]

>  <target>
hNav1.7 (Homo sapiens (Human), UniProt Q15858)

>  <IC50 (µM)>
0.0536

$$$$
>  <molecule>
CC(C)Oc1ncc(CN2CC(COc3cc(F)c(C(=O)NS(C)(=O)=O)cc3C3CC3)C2)cc1Cl [Example 83]

>  <target>
hNav1.7 (Homo sapiens (Human), UniProt Q15858)

>  <IC50 (µM)>
0.059

$$$$
>  <molecule>
CS(=O)(=O)NC(=O)c1cc(C2CC2)c(CN2[C@@H]3CC[C@H]2C[C@@H](Oc2cc(C(F)(F)F)c(Cl)cn2)C3)cc1F [Example 550, trifluoroacetic acid salt]

>  <target>
hNav1.7 (Homo sapiens (Human), UniProt Q15858)

>  <IC50 (µM)>
0.0136

$$$$
>  <molecule>
CC1(C)CO[C@H](Cc2cc(Cl)cc(Cl)c2)CN1Cc1cc(F)c(C(=O)NS(C)(=O)=O)cc1C1CC1 [Example 469, trifluoroacetic acid salt]

>  <target>
hNav1.7 (Homo sapiens (Human), UniProt Q15858)

>  <IC50 (µM)>
0.0989

$$$$

input: // lookup IC50 for CS(=O)(=O)NC(=O)c1cc(C2CC2)c(OCC2CCN(Cc3cc(Cl)cc(Cl)c3F)CC2)cc1F [Example 242]
output: 0.003

input: Continue with CS(=O)(=O)NC(=O)c1cc(C2CC2)c(O[C@H]2CN(Cc3ccc(F)cc3Cl)CC(F)(F)C2)cc1F [Example 445]
output: 0.0061

input: Continue with CC1(COc2cc(F)c(C(=O)NS(C)(=O)=O)cc2C2CC2)CN(C(c2ccccc2)c2cc(Cl)cc(Cl)c2)C1 (stereo not shown) [Example 420, trifluoroacetic acid salt]
output: 0.0024

input: Continue with O=C(NS(=O)(=O)N1CC(F)C1)c1cc(C2CC2)c(OC2CC3(C2)CN(Cc2ccc(F)cc2Cl)C3)cc1F [Example 321]
output: 0.191

input: Continue with C[C@H](c1ccc(F)cc1Cl)N1CCC[C@@H](Oc2cc(F)c(C(=O)NS(C)(=O)=O)cc2C2CC2)C1 [Example 296]
output: 0.0081

input: Continue with COC[C@H](c1ccc(Cl)cc1Cl)N1CCC(COc2cc(F)c(C(=O)NS(C)(=O)=O)cc2C2CC2)CC1 [Example 282]
output: 0.0044

input: Continue with CS(=O)(=O)NC(=O)c1cc(C2CC2)c(OCC2CCN(S(=O)(=O)c3ccc(OC(F)(F)F)cc3)CC2)cc1F [Example 378]
output: 0.0459

input: Continue with COC[C@@H](c1cc(Cl)cc(Cl)c1)N1CCC(COc2cc(F)c(C(=O)NS(=O)(=O)C3CC3)cc2C2CC2)CC1 (single isomer, unassigned) [Example 164]
output: 0.0043
